B1: tRNA (parent)
chain: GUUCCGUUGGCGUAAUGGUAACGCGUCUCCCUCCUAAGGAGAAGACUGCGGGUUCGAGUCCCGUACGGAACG

Variants of: B1
Protocol description: yeast fitness relative to wild type (ratio to wild type); higher = fitter; tRNA-Arg(CCU), competitive growth, 37 C, YPD
Fewer inactive variants are shown than the library holds.
variants and their reported yeast fitness
Just the number.

Worked set:
For GUUCCGUUGGCGUAAUGGUAACGCGUCUCACUCCUAAGGAGCAGACUGCGGGUUCGAGUCCCGUACGGAACG [C30A A42C] , write its yeast fitness.
0.789

For GUUCCGUUGGCGUAGUGGUAACGCGUCUCCCUCCUAAGGAGAAGACUGCGGGUUCGCGUCCCGUACGGAACG [A15G A57C] , write its yeast fitness.
0.636

For GUUCCGUUGGCGUAAUGGUAACGCAUCUCCCUCCUACGGAGAAGACUGCGGGUUCGAGUCCCGUACGGUACG [G25A A37C A69U] , write its yeast fitness.
0.684

For GUUCCGUUGGCAUAAUGGUAACGCGUCUCCCUCCUAAGGAGAAGACUGCGGGUUCGAGACCCGUACGGAACG [G12A U59A] , write its yeast fitness.
0.8

For GUUCCGUUGGCGUAAUGGUAACGCGUCUCCGUCCUAAGGAGAAGGCUGCGGGUUCUAGUCCCGUACGGAACG [C31G A45G G56U] , write its yeast fitness.
0.561

***
For GUUCCGUUGGCGUAAUGGUAACGCGUCUCCCUCGUAAGGAGAAGACUGCGAGUUCGAGUCCCGUACGGAACG [C34G G51A] , write its yeast fitness.
0.94

For GUUCCGUUGGCGUAAUGGUAACGCGUCUCCCUCCUAAAGAGAAGACUGCGGGUUCGAGUCCCGUACGGCACG [G38A A69C] , write its yeast fitness.
0.847

For GUUCCGUUGGCGUAAUGGUAACGCGUCUUCCUCCUAAGGAGAAGACUGCGGGUUCGAGUCCCGUACGCAACG [C29U G68C] , write its yeast fitness.
0.898

For GUUCCGUUGGCGUAAUGGUAAUGCGUCUCCCCCCUAAGGAGAAGACUGCGGGUUCGAGUCCCGUACGGAACG [C22U U32C] , write its yeast fitness.
0.902

For GUUCCGUUGGCAUAGUGGUAACGCGUCUCCCUCCUAAGGAGAAGACUGCGGGUUCGAGUCCCGUACGGCACG [G12A A15G A69C] , write its yeast fitness.
0.707

For GUUCCGUUGGCGUAAUGGUAACGCGUCUCCCUCCUAAGGAGAGGACUGCGGGUUCAAGUCCCGUAUGUAACG [A43G G56A C66U G68U] , write its yeast fitness.
0.557

For GUUCCGUUGGCGUAAUGGUAACGCGUCUCCUUCCUAAGGAGAAGACUGCGGGUUCGAGUCCCGUACGGUCCG [C31U A69U A70C] , write its yeast fitness.
0.778

For GUUCCGUUGGCGUAAUGGUAACGCGUCUCCCACCUAAGGAGAAGACUGCGGGUUCGACUCCCGUACGGUACG [U32A G58C A69U] , write its yeast fitness.
0.56

For GUUCCGUUGGCGUAAUGGUAACGCGUCUCCCUCCUAAGGAGAAGACUGCGGGUUCGAGUCCAGUACGGACCG [C62A A70C] , write its yeast fitness.
0.955

For GUUCCGUUGGCGUAAUAGUAACGCGUCUCCCUCCUACGGAGAAGACUGCGGGUUCGAGUCCCGUACGGAACG [G17A A37C] , write its yeast fitness.
0.681

For GUUCCGUUGGCGUAAUGGCAACGCGUCUCCCUCCUAAGGCCAAGACUGCGGGUUCGAGUCCCGUACGGAACG [U19C A40C G41C] , write its yeast fitness.
0.594

For GUUUCGUUGGCGUAAUGGUAACGCGUCUCCCUCCUCAGGAGAAGACUGCGGGUUCGAGUCACGUACGGAACG [C4U A36C C61A] , write its yeast fitness.
0.705

For GUUCCGUUGGCGUAAUGGUAACGCGUGUCCCUCCUAAGGAGAAGACUGCGGGUUCGAGUCUCGUACGGAACG [C27G C61U] , write its yeast fitness.
0.594
